- EXPERIMENT SUMMARY: qHTS for Inhibitors of human tyrosyl-DNA phosphodiesterase 1 (TDP1): qHTS in cells in presence of CPT; note: nearly all actives have a fitted effect of over 55% in size
- CONDITIONS: chicken DT40 Tdp1-/-;hTDP1 cells + 20 nM CPT, ATP luminescence, 48 h; series mostly up to 46.2 µM
Screen size: about 420,000 compounds; about 50,000 (12%) were called active. Not shown: some 26% with an inconclusive outcome. Calls come from the whole dose curve; as a rule, active = well fitted inhibition curve with a large enough effect; inconclusive = small, poorly fitted or top-dose-only effect; inactive = flat fitted curve, though single readings scatter. The list comes from a sample in which actives are over-represented; it also holds close analogues and randomly drawn compounds.
// allowed return values: active, inactive

Prompt: Which outcome was entered for the molecule `COc1ccc(N=C(C)c2sc3ccccc3c2O)cc1` in this test?
Completion: inactive

Prompt: Which outcome was entered for the molecule `CN1CCCN(C(=O)C2CCCCC2)CC1` in this test?
Completion: inactive

Prompt: Which outcome was entered for the molecule `CN(CCO)S(=O)(=O)c1ccc2c(c1)C(=O)c1cc(S(=O)(=O)N(C)CCO)ccc1-2` in this test?
Completion: inactive

Prompt: Which outcome was entered for the molecule CSCCC(NC(=O)c1ccco1)C(=O)Nc1cc(C)ccn1 (configuration not stated) in this test?
Completion: inactive

Prompt: Which outcome was entered for the molecule `CC(C)Oc1ccc(Oc2ccc(C(F)(F)F)cn2)cc1` in this test?
Completion: inactive

Prompt: Which outcome was entered for the molecule `O=C(Nc1ccc(N2CCOCC2)cc1)c1cccc2c(-c3ccc(F)c(F)c3)coc12` in this test?
Completion: inactive

Prompt: Which outcome was entered for the molecule `Cc1cccnc1NC(=O)Cn1c(=O)oc2ccccc21` in this test?
Completion: inactive

Prompt: Which outcome was entered for the molecule CCOc1ccc(N(CC)S(=O)(=O)N2CCCC(C(=O)Nc3ccc(C(C)=O)cc3)C2)cc1 (configuration not stated) in this test?
Completion: active

Prompt: Which outcome was entered for the molecule `CN(C)CCSc1nc(N)c2c3c(sc2n1)COC(C)(C)C3` in this test?
Completion: inactive

Prompt: Which outcome was entered for the molecule `COc1ccc(S(=O)(=O)NCCCCOc2ccc(Cl)cc2)cc1` in this test?
Completion: active

Prompt: Which outcome was entered for the molecule `O=C(Nc1ccccc1Cl)O/N=C(/c1ccccc1)c1ccccn1` in this test?
Completion: inactive

Prompt: Which outcome was entered for the molecule `CCOC(=O)c1cc(-c2ccc(OC)c(S(=O)(=O)Nc3ccc(OC)cc3OC)c2)on1` in this test?
Completion: inactive

Prompt: Which outcome was entered for the molecule `CCOc1ccc(N(C)S(=O)(=O)c2cc(-c3cnc(C)o3)ccc2OC)cc1` in this test?
Completion: active

Prompt: Which outcome was entered for the molecule OC(COc1cccc2ccccc12)CN1CCN(c2ccccn2)CC1 (configuration not stated) in this test?
Completion: inactive

Prompt: Which outcome was entered for the molecule `O=C(c1cccs1)N1C[C@H](n2cc(C3CC3)nn2)[C@@H](O)C[C@@H]1c1ccccc1` in this test?
Completion: inactive

Prompt: Which outcome was entered for the molecule `Cc1cc(C)cc(OCC(=O)Nc2c(C(=O)c3ccccc3)oc3ccccc23)c1` in this test?
Completion: inactive

Prompt: Which outcome was entered for the molecule `O=C(c1cc(-c2ccc(Cl)s2)nc2ccccc12)N1CCOCC1` in this test?
Completion: inactive

Prompt: Which outcome was entered for the molecule `COc1ccc(NC(=O)CN(C)C(=O)c2n[nH]c3ccccc23)cc1` in this test?
Completion: inactive

Prompt: Which outcome was entered for the molecule CCOc1ccc(N(CC)S(=O)(=O)N2CCCC(C(=O)NCc3ccc(SC)cc3)C2)cc1 (configuration not stated) in this test?
Completion: active

Prompt: Which outcome was entered for the molecule `O=C(c1cc2cc(Br)cc(Br)c2oc1=O)N1CCOCC1` in this test?
Completion: inactive

Prompt: Which outcome was entered for the molecule O=C1Nc2c(Br)cc(Br)cc2C1(O)N1CCOCC1 (configuration not stated) in this test?
Completion: active

Prompt: Which outcome was entered for the molecule `COc1ccc(C(=O)OCC(=O)c2ccc(Cl)s2)c(OC)c1OC` in this test?
Completion: inactive

Prompt: Which outcome was entered for the molecule CC(C)Oc1ccc(CN2CCC2(C)C(=O)NCc2ccc(C(F)(F)F)cc2)cc1 (configuration not stated) in this test?
Completion: active
